Data credit: ChEMBL document CHEMBL1201862

System: U-251
Experiment summary: NCI tumour cell line growth inhibition, 48 h
Active and inactive are the calls of the source. Rule as the data show it: active = GI50 up to about 1.1 µM and inactive = higher.
Outcome (select one): Y = active, N = inactive

// outcome(item) with item = COc1ccccc1N1C(=O)/C(=C\c2cccc(Oc3ccccc3)c2)SC1c1ccccc1 (stereo not drawn)
N

Next up: "Cc1cc(NS(=O)(=O)c2ccc(NC(=O)c3ccc(Cl)c4c(Nc5ccc(S(=O)(=O)N=C(N)N)cc5)c5ccccc5nc34)cc2)no1"
N

Next up: C=C1C2C[C@@H]3O[C@H]4C[C@H]5O[C@@]6(C[C@@H]7O[C@]8(C[C@H](C)[C@@H]9O[C@@H]%10CC(CO)O[C@@H]%10C[C@@H]9O8)C[C@H](C)[C@@H]7O6)C[C@H]5O[C@H]4[C@H](C)[C@H]3OC(=O)C[C@H]3CC[C@@H]4OC5[C@H]6O[C@]7(CC[C@H]8CC(=C)[C@H](CC[C@@H](C[C@H]1C)O2)O8)CC6O[C@@H]5[C@@H](O7)[C@H]4O3 (stereo partly drawn)
Y

Next up: "N/N=C1\CCCc2c1no[n+]2[O-]"
N

Next up: "O=[N+]([O-])c1ccc(NSc2ccccc2)cc1"
N

Next up: "COc1cc2c(cc1C)NC(=O)/C2=C/c1c(Cl)n(-c2ccccc2)c2ccccc12"
N

Next up: "N#C/C(C(=S)NCc1ccccc1)=C(/N)N1CCCC1"
N

Next up: COP(=O)(OC)C(O)/C=C(\Cl)c1ccc(Cl)cc1 (stereo not drawn)
N

###

Tested on: HOP-92
Experiment summary: NCI tumour cell line growth inhibition, 48 h
Active and inactive are the calls of the source. No stated cut-off is given here; in the data, active = GI50 up to about 1.1 µM and inactive = higher.
Outcome (select one): yes (1) for active, no (0) for inactive

// outcome(item) with item = "CCCc1c(O)nc2ccccc2c1O"
no (0)

Next up: "O=c1c(Cc2c(O)ccc3ccccc23)nnc2sc(-c3nn4c(=O)c(Cc5c(O)ccc6ccccc56)nnc4s3)nn12"
no (0)

Next up: COC12OC3(C4OC41)C(C(=O)O[C@H]3CO[Si](C)(C)C(C)(C)C)C2C(=O)Oc1ccccc1 (stereo not given in full)
no (0)

Next up: "N#C/C(C(=S)NCc1ccccc1)=C(/N)N1CCCC1"
no (0)

Next up: COc1ccc(C(=O)C(C(=O)C(=O)Nc2ccc(Cl)c(Cl)c2)c2ccc(OC)cc2)cc1 (stereo not given)
no (0)

Next up: "COc1cc(/C=C/c2cc(/C=C/c3ccc(O)c(OC)c3)oc(=O)c2)ccc1O"
no (0)

Next up: "O=[N+]([O-])c1cc(I)cc(/C=N/NS(=O)(=O)c2ccc(F)cc2)c1O"
no (0)

Next up: "COc1cc2cc(C(=O)N3C[C@H](CCl)c4c3cc(N)c3ccccc43)[nH]c2c(OC)c1OC"
yes (1)

Next up: "Clc1ccc(CNc2nc3ccccc3nc2-c2cccs2)c(Cl)c1"
no (0)

Next up: "NC(=O)c1ccccc1NC(=O)C(=O)Cc1nc2ccccc2nc1O"
no (0)

###

What GI50 was measured for each of the following?
System: EKVX
Experiment summary: NCI tumour cell line growth inhibition, 48 h
Activity calls are given as the source filed them. Rule as the data show it: active = GI50 up to about 1.1 µM and inactive = higher.

// GI50 lookup, key: "Cc1n[nH]c(=O)n1-n1cccc1"
> 100 µM (inactive)

Next up: "Cc1cc(NS(=O)(=O)c2ccc(NC(=O)c3ccc(Cl)c4c(Nc5ccc(S(=O)(=O)N=C(N)N)cc5)c5ccccc5nc34)cc2)no1"
95.1 µM (inactive)

Next up: O=C1CC2(CCC(O)(c3ccc4ccccc4c3)C(C(=O)c3ccc4ccccc4c3)C2)C(=O)c2ccccc2N1 (stereo not given)
> 100 µM (inactive)

Next up: CC12CCC3[C@@H](CC3(C)C)C(O)(CCC1=O)C2 (stereo not given in full)
> 100 µM (inactive)

Next up: "c1c[nH]c(CN2CCN(Cc3ncc[nH]3)CC2)n1"
52.2 µM (inactive)

Next up: "Cc1ccc(C(O)(c2ccc(C)cc2)c2ccccn2)cc1"
86.7 µM (inactive)

Next up: "COc1ccc(-c2cc(=O)c3c(OC)c(OC)c(OC)c(OC)c3o2)c(OC)c1"
29.2 µM (inactive)

Next up: "CN(O)C(=O)/C=C/c1ccc(OCc2cccc(Cl)c2)cc1"
26.5 µM (inactive)

Next up: "CC(C)=CCC/C(C)=C/CC/C(C)=C/Cc1c(O)c2ccccc2oc1=O"
> 100 µM (inactive)

Next up: NC(=S)N/N=C1\C(=O)N(c2cccc([N+](=O)[O-])c2)C(=O)C1C(=O)Nc1cccc([N+](=O)[O-])c1 (stereo not given)
> 100 µM (inactive)

###

Tested on: ACHN
Experiment summary: NCI tumour cell line growth inhibition, 48 h
The source made the active and inactive calls. Cut-off read from the data, not from the text of the source: active = GI50 up to about 1.1 µM and inactive = higher.
What GI50 was measured for each of the following?

Write down the reported GI50 of "Cc1nc2cc3nc4ccccc4c(O)c3cc2s1" , test system: ACHN.
> 100 µM (inactive)

Next up: CC(C)CC1c2[nH]c3ccccc3c2C[C@H]2C(=O)NC(COC(C)(C)C)C(=O)N12 (some centres undefined)
26.8 µM (inactive)

Next up: "COc1c(Cl)cc(NC(=S)C#N)cc1Cl"
25.6 µM (inactive)

Next up: "O=C1c2ccc3c4ccccc4n(Cc4ccccc4)c3c2C(=O)N1c1ccccc1"
> 35.7 µM (inactive)

Next up: CC(C)N(C(=O)C12C3(C(=O)C(C)(C)C)C4C5(C#N)C3C1(C(=O)C(C)(C)C)C5C42C(=O)C(C)(C)C)C(C)C (centres undefined)
> 100 µM (inactive)

Next up: COC(=O)[C@H]1C2CC[C@@H]3C45C[C@@H](c6ccoc6)O[C@@H]4O[C@@H](O2)C31CCC5C (some centres undefined)
> 100 µM (inactive)

Next up: N#CC(C(=O)C(=O)NCCCNC(=O)C(=O)C(C#N)c1ccccc1)c1ccccc1 (centres undefined)
> 100 µM (inactive)

Next up: "CC(C)=CCC/C(C)=C/CC/C(C)=C/CSc1ccc(Cl)cc1C(=O)O"
18.5 µM (inactive)

Next up: "COc1ccc(/N=N/C(=N/NC(=O)c2ccccc2)c2ccc(N(CCC#N)CCC#N)cc2C)cc1"
54.3 µM (inactive)

###

Tested on: NCI-H226
Experiment summary: NCI tumour cell line growth inhibition, 48 h
Active and inactive are the calls of the source. Cut-off read from the data, not from the text of the source: active = GI50 up to about 1.1 µM and inactive = higher.
Outcome (select one): 1 = active, -1 = inactive

// outcome(item) with item = "CC(C)(C)OC(=O)NCCNCCNc1ccccc1"
-1

Next up: CCCCCCCC1(N=[N+]=[N-])C(=O)c2ccccc2N(C)C1=O (stereo not given)
-1

Next up: "COC(=O)c1ccc(/C=C2\Oc3cc(O)ccc3C2=O)cc1"
-1

Next up: CC1CCC2(CC1)N=C1CCC(C)CC1C1(CCC(C)CC1)N2 (stereo not given)
-1

Next up: COC(=O)CC(C)(N[S+]([O-])c1ccc(C)cc1)c1ccccc1 (stereo not given)
-1

Next up: "CC(=O)CCn1ncc(Cl)c(Cl)c1=O"
-1

Next up: COc1ccc(C2C3CCc4ccccc4C3=NN2S(=O)(=O)c2cccc(C(=O)O)c2OC)cc1 (stereo not given)
-1

Next up: "Cn1cc(S(=O)(=O)NC(=O)Nc2ccc(Cl)cc2)c(=O)c2ccc(F)cc21"
-1

Next up: "NC(C(=O)OC(=O)c1ccccc1)C(=O)OC(=O)c1ccccc1"
-1

Next up: CC1=NN(c2cccc(Cl)c2)C2(SCC(=O)N2c2nc3ccccc3s2)/C1=C\c1ccc(N(C)C)cc1 (stereo not given)
-1

Next up: Cc1cc2nc3c(C(O)CO)nn(-c4ccccc4)c3nc2cc1C (stereo not given)
-1

Next up: "Cn1c(=O)cc(N2CCCC2)[nH]c1=O"
-1

Next up: Cc1c2n(c3ccccc13)CC1C2N(C)OC1(C)C (stereo not given)
-1

Next up: CC1=CC(O)CC(C)(C)C1/C=C/C(C)=C/C=C/C(C)=C/C=C/C=C(C)/C=C/C=C(C)/C=C/C1=C(C)CC(O)CC1(C)C (stereo not given)
-1

Next up: COc1cccc2c1OC(c1ccc(C#N)cc1)C([N+](=O)[O-])=C2 (stereo not given)
-1

Next up: c1ccc(COC[C@H]2C3OCC([C@H](OCc4ccccc4)[C@H]3OCc3ccccc3)N2Cc2ccccc2)cc1 (stereo not given in full)
-1

Next up: "CCOC(=O)c1cn(-c2ccc([N+](=O)[O-])cc2)c(=S)n2c1nc1ccccc12"
-1

Next up: "Clc1ccc(-c2cn3c(nc4ccccc43)c(-c3ccccc3)n2)cc1"
-1

Next up: "O=c1c2cnccc2cc2c3ccccc3ccn12"
-1

Next up: O=C(Nc1ccc(C(F)(F)F)cc1[N+](=O)[O-])C(=O)C1NC(=S)NC1=O (stereo not given)
-1

Next up: "O=C(Cc1nc2ccccc2s1)C(=O)Nc1ccc(Cl)cc1Cl"
-1

Next up: CCOC(=O)C(NO)C(Sc1ccccc1)c1ccc(OC)cc1 (stereo not given)
-1

Next up: "CC[C@@]1(O)C(=O)OCc2c1cc1n(c2=O)Cc2c-1nc1ccc(O)cc1c2[Si](C)(C)C(C)(C)C"
1

Next up: "CC(C)c1cccc(C(C)C)c1NC1=CC(=O)C(=O)c2ccccc21"
-1

Next up: C[N+](C)(C)CC(=O)N/N=C(\C(=O)NC1=C(Cl)C(=O)c2ccccc2C1=O)C(C#N)c1csc(-c2ccc([N+](=O)[O-])cc2)n1 (stereo not given)
-1

Next up: C=C1CC(OC)(C(OC)C(=O)N[C@H]2OCO[C@H]3C2O[C@H](C[C@@H](COC)OC)C(C)(C)C3OC)O[C@H](C)[C@@H]1C (stereo not given in full)
-1

Next up: "COc1ccc(Nc2nnc(-c3nsc4ccccc34)s2)cc1"
-1

Next up: CC(=O)OCC1OC(c2nnc(C)o2)=CC(OC(C)=O)C1OC(C)=O (stereo not given)
-1

Next up: CCOC(=O)CC(NCc1ccc(/N=C/c2nc3ccc(C(F)(F)F)cc3nc2-c2ccccc2)cc1)C(=O)OCC (stereo not given)
-1

Next up: "O=C(NCc1ccc2ccc3cccnc3c2n1)c1ccc[n+](Cc2ccccc2)c1"
-1

Next up: C[C@]12CCc3nonc3C1CC[C@@H]1C2CC[C@@]2(C)C1CC[C@@H]2O (stereo not given in full)
-1

Next up: "Cc1nc(N(CCO)CCO)c2sc(=S)n(-c3ccccc3)c2n1"
-1

Next up: COCCN(C(=O)c1ccccc1)C1CCC(=O)c2[nH]c3ccccc3c21 (stereo not given)
-1

Next up: CCC(C)[C@H](NC(=O)N[C@H](C)c1ccccc1)C(=O)OC (stereo not given in full)
-1

Next up: CC(C(=O)n1ccnc1)N1c2ccccc2Sc2ccccc21 (stereo not given)
-1

Next up: CC(=O)O[C@H]1CC[C@@]2(C)C(=CC[C@@H]3C2CC[C@]2(C)Nc4oncc4CC32)C1 (stereo not given in full)
-1

Next up: "COc1cc2c(c(OC)c1OC)-c1ccc(SC)c(=O)cc1[C@@H](NC(=O)C(F)(F)F)CC2"
1

Next up: CC1(C)OC2[C@@H](CO[C@@]3([C@@H](O)CCO)OC(C)(C)O[C@@H]23)O1 (stereo not given in full)
-1

Next up: O=C1c2ccccc2C(=O)C2NC(CCCCCSSCCCCCC3=NC4C(=O)c5ccccc5C(=O)C4N3)=NC12 (stereo not given)
-1

Next up: CCOC(=O)CCC(NC(=O)c1ccc(OCc2nc3ccccc3n3cccc23)cc1)C(=O)OCC (stereo not given)
-1
